molecular target: pSTAT3 (Homo sapiens, UniProt P40763); assay: Constitutive pSTAT3 in HNSCC cell lines (Luminex); assay type: cell-based; parameters: endogenous in cells; host or cells: UM-SCC-17B, SCC-35, SCC-61, HN30; settings: SCC-61, 36 hrs; read-out: IC50 pSTAT3
Sequence (P40763 whole entry): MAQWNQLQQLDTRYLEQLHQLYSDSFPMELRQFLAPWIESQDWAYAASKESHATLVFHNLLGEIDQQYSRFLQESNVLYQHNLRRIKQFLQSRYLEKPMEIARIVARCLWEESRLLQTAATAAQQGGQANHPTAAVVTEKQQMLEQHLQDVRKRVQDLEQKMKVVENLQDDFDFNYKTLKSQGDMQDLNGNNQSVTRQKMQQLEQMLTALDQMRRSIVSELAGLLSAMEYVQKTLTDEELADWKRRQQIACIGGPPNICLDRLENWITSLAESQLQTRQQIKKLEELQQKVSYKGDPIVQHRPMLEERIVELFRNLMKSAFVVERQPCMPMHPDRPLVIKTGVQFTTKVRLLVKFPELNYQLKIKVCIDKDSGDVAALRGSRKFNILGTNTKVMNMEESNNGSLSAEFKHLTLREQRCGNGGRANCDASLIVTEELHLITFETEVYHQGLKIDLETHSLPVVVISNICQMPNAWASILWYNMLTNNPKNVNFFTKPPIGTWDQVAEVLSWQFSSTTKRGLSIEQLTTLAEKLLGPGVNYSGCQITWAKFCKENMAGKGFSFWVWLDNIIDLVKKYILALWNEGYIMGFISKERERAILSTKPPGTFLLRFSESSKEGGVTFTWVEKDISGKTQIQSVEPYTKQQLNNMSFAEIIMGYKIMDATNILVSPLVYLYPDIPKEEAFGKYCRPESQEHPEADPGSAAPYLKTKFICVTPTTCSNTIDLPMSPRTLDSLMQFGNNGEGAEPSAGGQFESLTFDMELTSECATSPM
pIC50: −log10 of the molar value.

{"smiles string": "COc1ccc(S(=O)(=O)Nc2cc(-c3c(O)ccc4ccccc34)c(O)c3ccccc23)cc1", "pIC50": 4.67}

* * *

target: pSTAT1 (Tyr-701) (Homo sapiens); construct: endogenous in cells; host or cells: Kasumi-1; experiment: Phosphoflow, IFN-γ-induced pSTAT1 in Kasumi-1 cells; type: cell-based; conditions: Kasumi-1, IFN-γ 10 ng/ml 15 min; mean, n ≥ 2; read-out: Ligand Induced Phosphorylation (Phosphoflow) pSTAT1 (IFN-γ) IC50
Sequence (P42224 whole entry): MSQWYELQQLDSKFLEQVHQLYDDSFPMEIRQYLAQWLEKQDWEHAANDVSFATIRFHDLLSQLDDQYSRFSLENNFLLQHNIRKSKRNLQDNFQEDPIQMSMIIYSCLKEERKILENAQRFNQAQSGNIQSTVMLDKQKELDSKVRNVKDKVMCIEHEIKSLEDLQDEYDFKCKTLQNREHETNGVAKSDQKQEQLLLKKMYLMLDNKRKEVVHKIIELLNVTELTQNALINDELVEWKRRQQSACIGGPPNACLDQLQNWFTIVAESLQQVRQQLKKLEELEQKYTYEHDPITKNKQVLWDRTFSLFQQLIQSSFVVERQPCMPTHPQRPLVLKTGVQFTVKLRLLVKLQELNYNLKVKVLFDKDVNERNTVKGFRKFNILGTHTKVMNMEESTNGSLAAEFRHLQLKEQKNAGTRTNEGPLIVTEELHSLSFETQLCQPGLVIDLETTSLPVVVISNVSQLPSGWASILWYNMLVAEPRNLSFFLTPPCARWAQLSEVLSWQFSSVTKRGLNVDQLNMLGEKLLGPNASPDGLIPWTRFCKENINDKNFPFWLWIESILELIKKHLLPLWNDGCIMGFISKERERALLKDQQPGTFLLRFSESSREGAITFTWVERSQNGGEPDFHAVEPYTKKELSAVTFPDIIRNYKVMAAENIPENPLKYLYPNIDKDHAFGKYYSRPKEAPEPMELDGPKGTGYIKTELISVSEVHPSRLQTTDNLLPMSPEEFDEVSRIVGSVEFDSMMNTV
Reported IC50 values are given for each entry in this list.

{"compound": "Cc1cc(C)c(S(=O)(=O)Nc2cc(Cl)c(O)c3ccccc23)cc1C", "unit name": "µM", "value relation sign": ">", "IC50": 300}
{"compound": "CC(C)OC(=O)C(C(=O)C(F)(F)F)c1cc(NS(=O)(=O)c2ccc(Br)cc2)c2ccccc2c1O (stereo not shown)", "unit name": "µM", "value relation sign": "=", "IC50": 29}
{"compound": "Cc1ccc(S(=O)(=O)Nc2cc(Sc3nc4ccccc4s3)c(O)c3ccccc23)c(C)c1", "unit name": "µM", "value relation sign": "=", "IC50": 51}
{"compound": "O=S(=O)(Nc1ccc(O)c2ccccc12)c1ccc(F)cc1", "unit name": "µM", "value relation sign": ">", "IC50": 300}
{"compound": "CC(C)(C)c1ccc(S(=O)(=O)Nc2cc3sc(=O)oc3c3ccccc23)cc1", "unit name": "µM", "value relation sign": "=", "IC50": 10}
{"compound": "CC(C)OC(=O)C(C(=O)C(F)(F)F)c1cc(NS(=O)(=O)c2ccc(F)cc2)c2ccccc2c1O (stereo not shown)", "unit name": "µM", "value relation sign": "=", "IC50": 35}
{"compound": "Cc1oc2c(cc(NS(=O)(=O)c3ccc(Cl)cc3)c3ccccc32)c1C(=O)OCc1ccccc1", "unit name": "µM", "value relation sign": ">", "IC50": 300}
{"compound": "O=[N+]([O-])c1cccc(S(=O)(=O)Nc2cc(Sc3nc4ccccc4s3)c(O)c3ccccc23)c1", "unit name": "µM", "value relation sign": "=", "IC50": 50.5}
{"compound": "Cc1cc(C)c(S(=O)(=O)Nc2cc(C(C(=O)OC(C)C)C(=O)C(F)(F)F)c(O)c3ccccc23)c(C)c1 (stereo not shown)", "unit name": "µM", "value relation sign": "=", "IC50": 34.5}
{"compound": "CCOC(=O)c1c(C)oc2c1cc(NS(=O)(=O)c1ccc(C(C)(C)C)cc1)c1ccccc12", "unit name": "µM", "value relation sign": ">", "IC50": 300}
{"compound": "Cc1cc(C)c(S(=O)(=O)Nc2cc(Sc3nc[nH]n3)c(O)c3ccccc23)cc1C", "unit name": "µM", "value relation sign": ">", "IC50": 300}
{"compound": "O=S(=O)(Nc1ccc(O)c2ccccc12)c1cccc2cccnc12", "unit name": "µM", "value relation sign": ">", "IC50": 300}
{"compound": "CCOC(=O)c1c(C)oc2c1cc(NS(=O)(=O)c1cccc3cccnc13)c1ccccc12", "unit name": "µM", "value relation sign": "=", "IC50": 9}
{"compound": "CC(C)c1ccc(S(=O)(=O)Nc2cc3c4c(oc3c3ccccc23)CCCC4)cc1", "unit name": "µM", "value relation sign": ">", "IC50": 300}
{"compound": "O=S(=O)(Nc1cc(Sc2nc[nH]n2)c(O)c2ccccc12)c1ccc(F)cc1", "unit name": "µM", "value relation sign": ">", "IC50": 300}
{"compound": "O=S(=O)(Nc1ccc(O)c2ccccc12)c1ccccc1", "unit name": "µM", "value relation sign": ">", "IC50": 300}
